Assay: physchem
Conditions: LogPA (logP of the stated pure compound or, in a mixture, of the main isomer, 1-substituted 3-aryl-1H-pyrazole)
Each item that follows carries a reported chromatographic logP.
Enter a number only.

>>> observed_value("Cc1cc(F)ccc1-c1c(-c2ccncc2)cnn1C1CCCCO1 (centres unmarked) [Compound 37]")
1.4

Specify reported chromatographic logP for the compound shown: Fc1ccc(-c2nn(Cc3cccnc3)cc2-c2ccncc2)cc1 [Compound 100] 0.78

Specify reported chromatographic logP for the compound shown: Fc1ccc(-c2nn(C3CCCCO3)cc2-c2ncnc3[nH]ccc23)cc1 (centres unmarked) [Compound 66] 1.69

Specify reported chromatographic logP for the compound shown: c1ccc(COc2ccccc2-c2c(-c3ccncc3)cnn2C2CCCCO2)cc1 (centres unmarked) [Compound 98] 1.64

Specify reported chromatographic logP for the compound shown: Fc1cccc(F)c1-c1c(-c2ccncc2)cnn1C1CCCC1 [Compound 17] 1.74
